Source of measurements: ChEMBL document CHEMBL1157410

Task for the reader: assign each of the following compounds its reported IC50.
- System Under Test: Progesterone receptor (Homo sapiens, UniProt P06401)
- Sequence (P06401 whole entry): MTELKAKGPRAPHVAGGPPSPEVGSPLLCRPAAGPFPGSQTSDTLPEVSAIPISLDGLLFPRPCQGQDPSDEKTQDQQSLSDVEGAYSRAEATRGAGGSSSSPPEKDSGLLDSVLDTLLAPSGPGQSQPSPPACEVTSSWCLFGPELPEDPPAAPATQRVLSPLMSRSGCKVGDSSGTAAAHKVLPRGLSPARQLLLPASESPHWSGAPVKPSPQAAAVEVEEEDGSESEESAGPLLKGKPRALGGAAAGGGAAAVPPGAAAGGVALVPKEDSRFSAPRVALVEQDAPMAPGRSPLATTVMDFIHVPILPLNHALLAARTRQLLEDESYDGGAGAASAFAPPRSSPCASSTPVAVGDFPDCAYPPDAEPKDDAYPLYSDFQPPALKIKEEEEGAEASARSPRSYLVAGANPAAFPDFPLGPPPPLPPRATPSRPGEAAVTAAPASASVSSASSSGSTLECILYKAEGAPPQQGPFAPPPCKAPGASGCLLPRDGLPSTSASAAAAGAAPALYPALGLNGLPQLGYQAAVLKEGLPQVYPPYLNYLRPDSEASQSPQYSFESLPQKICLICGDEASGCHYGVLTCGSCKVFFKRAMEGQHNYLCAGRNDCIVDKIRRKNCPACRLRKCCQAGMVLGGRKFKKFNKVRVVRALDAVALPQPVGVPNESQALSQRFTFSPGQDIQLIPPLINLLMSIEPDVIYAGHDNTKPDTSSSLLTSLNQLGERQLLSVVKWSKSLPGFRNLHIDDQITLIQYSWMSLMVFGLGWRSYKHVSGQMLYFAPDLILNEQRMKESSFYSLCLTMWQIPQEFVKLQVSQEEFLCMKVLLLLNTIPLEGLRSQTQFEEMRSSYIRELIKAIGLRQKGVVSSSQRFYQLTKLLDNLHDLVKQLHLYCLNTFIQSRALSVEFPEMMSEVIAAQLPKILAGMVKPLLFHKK
- Measurement Notes: Inhibition of progesterone receptor mediated progesterone-induced alkaline phosphatase activity in human T47D cells
For clarity, give the value followed by its unit.

CCC1(c2ccco2)OCC(=O)Nc2ccc(-c3coc(C#N)c3)cc21 (stereo not drawn) = 0.0299 µM
CC1(C)OCC(=O)Nc2ccc(-c3cc(F)cc(Cl)c3)cc21 = 0.015 µM
CC1(C)OCC(=O)Nc2ccc(-c3cc(Cl)cc(Cl)c3)cc21 = 0.0291 µM

Value sought for every listed compound: IC50.
1. O=C1COC(c2ccco2)(c2ccco2)c2cc(-c3ccc(F)c(Cl)c3)ccc2N1
2. CCC1(c2cccs2)OCC(=O)Nc2ccc(-c3ccc(F)c(Cl)c3)cc21 (stereo not drawn)
3. CCC1(c2cccs2)OCC(=O)Nc2ccc(-c3cc(F)cc(C#N)c3)cc21 (stereo not drawn)
4. O=C1COC(c2ccc(Cl)s2)(c2ccc(Cl)s2)c2cc(-c3ccc(F)c(Cl)c3)ccc2N1
5. CCC1(c2ccsc2)OCC(=O)Nc2ccc(-c3cc(F)cc(C#N)c3)cc21 (stereo not drawn)

A.
1: 0.0225 µM; 2: 0.208 µM; 3: 0.1 µM; 4: 1 µM; 5: 0.0592 µM
